List of IC50 values.
target: hDAT (Homo sapiens (Human)); assay: DAT radioligand binding assay ([125I]RTI-55, HEK-293 membranes); settings: recombinant HEK-293 membranes, [125I]RTI-55; read-out: Binding Affinity (IC50, nM) DAT
Sequence (Q01959 whole entry): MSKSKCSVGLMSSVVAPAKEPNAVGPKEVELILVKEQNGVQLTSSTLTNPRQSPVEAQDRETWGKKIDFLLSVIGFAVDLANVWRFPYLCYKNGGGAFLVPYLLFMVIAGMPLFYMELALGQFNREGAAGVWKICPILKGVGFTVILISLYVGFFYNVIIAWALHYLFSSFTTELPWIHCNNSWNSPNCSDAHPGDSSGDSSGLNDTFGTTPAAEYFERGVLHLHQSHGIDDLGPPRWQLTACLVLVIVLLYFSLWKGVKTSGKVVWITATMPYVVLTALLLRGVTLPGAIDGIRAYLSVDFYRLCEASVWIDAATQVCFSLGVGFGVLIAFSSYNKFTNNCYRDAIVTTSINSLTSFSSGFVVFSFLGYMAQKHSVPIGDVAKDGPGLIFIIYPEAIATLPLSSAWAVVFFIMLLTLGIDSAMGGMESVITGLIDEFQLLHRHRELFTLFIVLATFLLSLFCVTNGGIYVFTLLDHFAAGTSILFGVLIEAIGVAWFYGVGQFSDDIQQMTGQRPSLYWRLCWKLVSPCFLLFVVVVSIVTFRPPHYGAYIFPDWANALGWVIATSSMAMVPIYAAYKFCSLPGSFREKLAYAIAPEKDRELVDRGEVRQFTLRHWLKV
The reply should contain only the number, in nM.

# example entries with known answers
Compound: N#Cc1ccc(-c2ccc3c(c2)CN2CCC3(c3ccc(Cl)cc3)C2)cc1 (racemic) [Example 8]
Measurement Target: hDAT (Homo sapiens (Human))
Recorded Metric: IC50
Readout Number: 450

Compound: O=c1[nH]c2ccc(-c3ccc4c(c3)CN3CCC4(c4ccc(Cl)c(Cl)c4)C3)cc2o1 (single isomer, unassigned) [11(−)]
Measurement Target: hDAT (Homo sapiens (Human))
Recorded Metric: IC50
Readout Number: 19.6

Compound: Fc1cc(C23CCN(CC2)Cc2cc(Oc4ccc(C(F)(F)F)nn4)ccc23)ccc1Cl [Example 48]
Measurement Target: hDAT (Homo sapiens (Human))
Recorded Metric: IC50
Readout Number: 10.1

Compound: Fc1ccc(C23CCN(CC2)Cc2cc(Oc4ccc(C(F)(F)F)nn4)ccc23)cc1Cl [Example 47]
Measurement Target: hDAT (Homo sapiens (Human))
Recorded Metric: IC50
Readout Number: 9

Field: next compound
Notebook: O=c1n(-c2ccc3c(c2)CN2CCC3(c3ccc(Cl)cc3)CC2)nc2ccccn12 [Example 23] , IC50 read as 37.5
